# TESTED_SYSTEM: Ile83Glu anti-HER2 memAb
# Sequence (VH, as listed by the source, chain 1 of 2): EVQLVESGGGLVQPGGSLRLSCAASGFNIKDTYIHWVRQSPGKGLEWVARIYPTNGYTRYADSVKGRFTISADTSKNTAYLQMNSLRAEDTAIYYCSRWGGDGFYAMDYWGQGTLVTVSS
# Sequence (VL, as listed by the source, chain 2 of 2): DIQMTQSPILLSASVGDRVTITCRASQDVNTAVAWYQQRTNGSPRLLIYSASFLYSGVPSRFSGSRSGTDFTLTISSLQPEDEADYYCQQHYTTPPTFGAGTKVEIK
# MEASUREMENT_NOTES: SPR
Positions of bridges follow the written chain, without caps; N, C: chain ends. No end group written: not given here.
REPORTED_PROPERTY: Kd

- CQFDLSTRRLKC (disulfide 1-12 (inferred)) [original meditope (CQFDLSTRRLKC)]: 20 nM
